pKd values for the compounds below.
- TESTED_SYSTEM: human α1H T-type channels (Homo sapiens, UniProt O95180)
- Sequence (O95180 whole entry): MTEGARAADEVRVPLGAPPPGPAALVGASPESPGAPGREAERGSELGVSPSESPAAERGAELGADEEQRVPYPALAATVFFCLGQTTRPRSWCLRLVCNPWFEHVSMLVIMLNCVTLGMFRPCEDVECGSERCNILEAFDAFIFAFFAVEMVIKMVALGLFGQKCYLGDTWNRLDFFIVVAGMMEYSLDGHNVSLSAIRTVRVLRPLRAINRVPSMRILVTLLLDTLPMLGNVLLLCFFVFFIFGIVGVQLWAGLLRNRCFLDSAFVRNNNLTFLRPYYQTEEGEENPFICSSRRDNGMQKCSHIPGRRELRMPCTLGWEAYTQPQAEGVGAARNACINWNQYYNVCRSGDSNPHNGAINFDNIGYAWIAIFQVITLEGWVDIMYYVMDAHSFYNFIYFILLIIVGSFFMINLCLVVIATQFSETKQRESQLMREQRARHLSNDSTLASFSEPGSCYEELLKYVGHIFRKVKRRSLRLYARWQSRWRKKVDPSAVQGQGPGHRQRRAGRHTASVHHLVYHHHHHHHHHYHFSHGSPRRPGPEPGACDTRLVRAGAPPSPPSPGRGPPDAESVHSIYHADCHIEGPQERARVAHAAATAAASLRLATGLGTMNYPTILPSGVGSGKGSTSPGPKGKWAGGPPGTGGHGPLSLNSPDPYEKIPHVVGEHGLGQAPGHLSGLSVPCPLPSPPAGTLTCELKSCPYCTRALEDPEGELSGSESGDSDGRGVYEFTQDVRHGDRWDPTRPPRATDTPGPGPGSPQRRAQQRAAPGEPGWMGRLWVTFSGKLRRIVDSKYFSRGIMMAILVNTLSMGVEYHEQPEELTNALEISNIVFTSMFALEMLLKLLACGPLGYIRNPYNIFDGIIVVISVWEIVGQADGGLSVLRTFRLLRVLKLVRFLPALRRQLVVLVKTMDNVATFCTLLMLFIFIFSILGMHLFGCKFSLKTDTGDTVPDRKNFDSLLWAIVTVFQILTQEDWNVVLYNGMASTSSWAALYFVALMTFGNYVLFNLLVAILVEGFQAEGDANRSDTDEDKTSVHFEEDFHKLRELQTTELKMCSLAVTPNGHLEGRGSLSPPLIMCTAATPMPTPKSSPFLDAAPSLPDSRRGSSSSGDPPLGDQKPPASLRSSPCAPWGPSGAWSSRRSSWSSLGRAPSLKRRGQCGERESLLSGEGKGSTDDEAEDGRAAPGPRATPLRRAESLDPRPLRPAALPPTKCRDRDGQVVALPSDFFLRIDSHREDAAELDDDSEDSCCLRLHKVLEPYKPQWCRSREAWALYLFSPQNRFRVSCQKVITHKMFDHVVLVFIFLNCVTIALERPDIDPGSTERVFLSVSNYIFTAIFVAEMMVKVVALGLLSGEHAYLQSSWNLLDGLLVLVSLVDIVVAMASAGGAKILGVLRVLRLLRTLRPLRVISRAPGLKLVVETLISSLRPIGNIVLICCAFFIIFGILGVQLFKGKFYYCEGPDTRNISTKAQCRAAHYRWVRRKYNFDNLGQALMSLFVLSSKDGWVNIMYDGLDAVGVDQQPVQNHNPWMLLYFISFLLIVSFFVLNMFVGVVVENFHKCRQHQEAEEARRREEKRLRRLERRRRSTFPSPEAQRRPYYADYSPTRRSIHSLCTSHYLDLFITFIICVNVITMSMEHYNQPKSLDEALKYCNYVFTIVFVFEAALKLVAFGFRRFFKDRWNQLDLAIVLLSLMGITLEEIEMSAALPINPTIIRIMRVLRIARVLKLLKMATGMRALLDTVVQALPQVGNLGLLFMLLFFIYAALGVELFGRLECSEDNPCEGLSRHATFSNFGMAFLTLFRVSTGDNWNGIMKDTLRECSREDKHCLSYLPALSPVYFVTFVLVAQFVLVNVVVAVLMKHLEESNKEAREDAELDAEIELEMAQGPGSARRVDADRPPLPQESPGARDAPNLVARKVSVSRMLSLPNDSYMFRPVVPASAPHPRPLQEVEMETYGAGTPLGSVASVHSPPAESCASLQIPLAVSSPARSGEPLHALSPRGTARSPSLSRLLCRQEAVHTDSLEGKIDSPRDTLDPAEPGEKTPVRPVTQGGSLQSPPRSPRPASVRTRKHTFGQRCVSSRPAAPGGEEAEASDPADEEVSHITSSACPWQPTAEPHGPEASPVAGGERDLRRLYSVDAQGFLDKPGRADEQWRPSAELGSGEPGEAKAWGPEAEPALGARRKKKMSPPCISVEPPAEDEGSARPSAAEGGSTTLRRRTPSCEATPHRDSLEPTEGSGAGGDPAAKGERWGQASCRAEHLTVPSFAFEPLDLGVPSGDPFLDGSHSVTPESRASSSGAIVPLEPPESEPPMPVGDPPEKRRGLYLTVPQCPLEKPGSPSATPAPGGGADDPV
- EXPERIMENTAL_DETAILS: T-type calcium channel block, whole cell patch clamp in HEK cells
- TEST_CONTEXT: HEK cells stably expressing human α1H; measured at 1 μM drug; mainly non-inactivated protocol
# pKd is unitless: minus log10 of the molar concentration; print number only

Solved entries (count: 6):
CNC(=O)c1sc2ncn(CC(=O)Nc3cc(C(F)(F)F)cc(C(F)(F)F)c3)c(=O)c2c1C [Compound 66] = 5.12
CCN(CC)C(=O)Cn1cnc2sc(C(=O)N3CCN(c4ccc(Cl)cc4)CC3)c(C)c2c1=O [Compound 5] = 6.21
CCN(CC)C(=O)Cn1cnc2sc(C(=O)N3CCN(c4ccc(Cl)c(C(F)(F)F)c4)CC3)c(C)c2c1=O [Compound 8] = 6.27
Cc1c(C(=O)N2CCN(c3ccccc3)CC2)sc2ncn(C(C)C(=O)NC3CCCC3)c(=O)c12 (stereo not shown) [Compound 46] = 6.28
Cc1c(C(=O)N2CCN(c3ccc(Cl)cc3)CC2)sc2ncn(CC(=O)NC3CCCC3)c(=O)c12 [Compound 42] = 6.55
Cc1c(C(=O)N2CCN(c3cc(C(F)(F)F)cc(C(F)(F)F)c3)CC2)sc2ncn(CC(=O)Nc3ccccc3)c(=O)c12 [Compound 53] = 5.98

Please find the next compound below.
Complete the entry with pKd for Cc1c(C(=O)N2CCN(c3ccccc3)CC2)sc2ncn(C(C)C(=O)NC3CCCCC3)c(=O)c12 (stereo not shown) [Compound 33]
6.46
